Below are compounds with their MIC, K. pneumoniae as measured on K. pneumoniae (ATCC 13383).

Completed entries (count: 2):
[[record]]
compound_string = "NCCCC[C@H]1CN(C(=O)CCc2ccccc2)CC(=O)N[C@@H](CCCCN)CN(C(=O)CCc2ccccc2)CC(=O)N[C@@H](CCCCN)CN(C(=O)CCc2ccccc2)CC(=O)N[C@@H](CCCCN)CN(C(=O)CCc2ccccc2)CC(=O)N[C@@H](CCCCN)CN(C(=O)CCc2ccccc2)CC(=O)N[C@@H](CCCCN)CN(C(=O)CCc2ccccc2)CC(=O)N[C@@H](Cc2ccccc2)CN(CC(N)=O)C(=O)CCC(=O)N1"
measured_quantity = "MIC, K. pneumoniae"
value_reported = "> 50 µg/mL"

[[record]]
compound_string = "NCCCC[C@H]1CN(C(=O)CCc2ccccc2)CC(=O)N[C@@H](CCCCN)CN(C(=O)CCc2ccccc2)CC(=O)N[C@@H](CCCCN)CN(C(=O)CCc2ccccc2)CC(=O)N[C@@H](CCCCN)CN(C(=O)CCc2ccccc2)CC(=O)N[C@@H](Cc2ccccc2)CN(CC(N)=O)C(=O)CCC(=O)N1"
measured_quantity = "MIC, K. pneumoniae"
value_reported = "> 50 µg/mL"


Query compound follows.
*Q* Looking for the measured MIC, K. pneumoniae of NCCCC[C@H]1CN(C(=O)CCc2ccccc2)CC(=O)N[C@@H](CCCCN)CN(C(=O)CCc2ccccc2)CC(=O)N[C@@H](CCCCN)CN(C(=O)CCc2ccccc2)CC(=O)N[C@@H](CCCCN)CN(C(=O)CCc2ccccc2)CC(=O)N[C@@H](CCCCN)CN(C(=O)CCc2ccccc2)CC(=O)N[C@@H](Cc2ccccc2)CN(CC(N)=O)C(=O)CCC(=O)N1 , can you help?
*A* > 50 µg/mL
